Documented Ki across a set of compounds
Biological target: HCV NS3 protease domain (Hepatitis C virus genotype 1b, UniProt Q9WMX2)
Construct: The first 181 amino acids of NS3 (residues 1027-1207 of the viral polyprotein); hexa-histidine (C); made in house; host or cells: E. coli BL21/DE3 pLysS
Sequence (Q9WMX2 1027-1207, other chains not shown): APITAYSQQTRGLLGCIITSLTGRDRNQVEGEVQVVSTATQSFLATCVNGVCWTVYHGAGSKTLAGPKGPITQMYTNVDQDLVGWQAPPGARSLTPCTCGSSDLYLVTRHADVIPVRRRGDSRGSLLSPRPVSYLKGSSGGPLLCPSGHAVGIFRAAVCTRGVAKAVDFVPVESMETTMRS
Test: biochemical
Conditions: Enzyme Assay 1 (HCV NS3 Protease Domain Peptide Cleavage Assay) activity, apparent Ki class

Compound structure string: CCC[C@H](NC(=O)[C@@H]1C[C@]2(CC(c3ccc4c(c3)CCC(C)(C)O4)=NO2)CN1C(=O)[C@@H](NC(=O)CC1CCCCC1)C(C)(C)C)C(=O)C(=O)NC1CC1
Ki: 100 to 500 nM

Compound structure string: CCC[C@H](NC(=O)[C@@H]1C[C@]2(CC(c3cccc(Cl)c3)=NO2)CN1C(=O)[C@@H](NC(=O)[C@H]1CC[C@@H](OC)CC1)C(C)(C)C)C(=O)C(=O)NC1CC1
Ki: 100 to 500 nM

Compound structure string: CCC[C@H](NC(=O)[C@@H]1C[C@]2(CC(c3ccccc3)=NO2)CN1C(=O)OCC1c2ccccc2-c2ccccc21)C(=O)C(=O)NC1CC1
Ki: > 500 nM

Compound structure string: CCC[C@H](NC(=O)[C@@H]1C[C@]2(CC(c3ccc(OC)c(OC4CCCC4)c3)=NO2)CN1C(=O)[C@@H](NC(=O)O[C@H]1CCOC1)C(C)(C)C)C(=O)C(=O)NC1CC1
Ki: > 500 nM

Compound structure string: CCC[C@H](NC(=O)[C@@H]1C[C@]2(CC(c3cc(Cl)ccc3OC)=NO2)CN1C(=O)[C@@H](NC(=O)CC1CCCCC1)C(C)(C)C)C(=O)C(=O)NC1CC1
Ki: < 100 nM

Compound structure string: CCCC1=NO[C@]2(C1)C[C@@H](C(=O)N[C@@H](CCC)C(=O)C(=O)NC1CC1)N(C(=O)[C@@H](NC(=O)[C@@H](NC(=O)c1cnccn1)C1CCCCC1)C(C)(C)C)C2
Ki: < 100 nM

Compound structure string: CCC[C@H](NC(=O)[C@@H]1C[C@]2(CC(c3cccc(Cl)c3)=NO2)CN1C(=O)[C@@H](NC(=O)[C@@H](C)Cc1ccccc1)C(C)(C)C)C(=O)C(=O)NC1CC1
Ki: > 500 nM

Compound structure string: CCC[C@H](NC(=O)[C@@H]1C[C@]2(CC(c3cccc(Cl)c3)=NO2)CN1C(=O)[C@@H](NC(=O)c1ccnn1-c1ccccc1)C(C)(C)C)C(=O)C(=O)NC1CC1
Ki: 100 to 500 nM

Compound structure string: CCC[C@H](NC(=O)[C@@H]1C[C@]2(CC(c3cccc(Cl)c3)=NO2)CN1C(=O)[C@@H](NC(=O)Oc1ccc2c(c1)OCO2)C(C)(C)C)C(=O)C(=O)NC1CC1
Ki: 100 to 500 nM

Compound structure string: CCC[C@H](NC(=O)[C@@H]1C[C@]2(CC(c3cccc(Cl)c3)=NO2)CN1C(=O)[C@@H](NC(=O)Cc1sc(C)nc1C)C(C)(C)C)C(=O)C(=O)NC1CC1
Ki: 100 to 500 nM
